meta.source: PubChem BioAssay (EPA / NIEHS)

read-out: Interleukin 17F (IL17F), IL17F (gene 112744); assay: BSK_BT_xIL17F: BioMAP Diversity Plus: BT Assay for Interleukin 17F (IL17F) Biomarker Activity (AID 2284243); conditions: primary human B cells with PBMC
Activity calls are given as the source filed them. The calls were made as follows: active = hit-call score of the fitted dose curve at least 0.9, where 1 is the maximum; inactive = score below 0.9.
Select the correct class. Options are active, inactive and nothing else.

I would be grateful if you could indicate the recorded call for "O=C(O)C(F)(F)OC(F)(F)C(F)(F)OC(F)(F)C(F)(F)OC(F)(F)F" .
inactive

In this assay, the call recorded for "CO[Si](C)(CCC(F)(F)C(F)(F)C(F)(F)C(F)(F)C(F)(F)C(F)(F)F)OC" was what?
inactive

// param item: "C=CC(=O)OCC(F)(F)C(F)(F)C(F)(F)C(F)(F)C(F)(F)C(F)(F)C(F)(F)C(F)F" ; yields the recorded call
active

Recorded test call requested for CC1=CC2C3C=CC(C3)C2C1C (stereo not given)
inactive

// param item: "OCC(F)(F)C(F)(F)C(F)(F)CO" ; yields the recorded call
inactive

Please state the recorded outcome for this compound: "C[C@]12CC[C@H]3C(=CCc4cc(O)ccc43)[C@@H]1CCC2=O"
active

Entry "O=C(O)C(F)(F)C(F)(F)C(F)(F)C(=O)O" : call = ?
inactive

Call for entry "Cc1cnccn1" :
inactive

Given "CCOC(=O)CC(=O)C(F)(F)C(F)(F)F" , state the outcome it received in this test.
inactive

Identify the outcome logged in this assay for the compound shown: "CCOC(C=C(C)CCC=C(C)C)OCC"
inactive

Check the results log: what was the call for "O=S(=O)(Cl)C(F)(F)C(F)(F)C(F)(F)C(F)(F)C(F)(F)C(F)(F)C(F)(F)C(F)(F)F" ?
inactive

Please let me know the test result on file for "Brc1nc2ccccc2s1" .
inactive

Short answer needed: outcome of this test for CC(C)CCCC(C)CCO (stereo not given) ?
inactive

Field: outcome | Entry: "O=C=NCc1cccc(CN=C=O)c1"
inactive

Fill in: this test's call for OCC(O)CC(F)(F)C(F)(F)C(F)(F)C(F)(F)C(F)(F)C(F)(F)C(F)(F)C(F)(F)F (stereo not given) is ___
inactive

* * *

Experiment: Tanguay_ZF_120hpf_ANY: Oregon State University Tanguay Lab 120 Hour Post-fertilization zebrafish Assay for Any Mortality and Malformation (AID 2284404)
Method: Tanguay_ZF_120hpf is a whole embryo, multiplexed endpoint assay using zebrafish larvae exposed for 120 hours post fertilization on a 96-well plate.Tanguay_ZF_120hpf_ANY is one of one assay component(s) measured or calculated from the Tanguay_ZF_120hpf assay. […] This assay endpoint, Tanguay_ZF_120hpf_ANY, was analyzed in the positive analysis fitting direction relative to DMSO as the negative control and baseline of activity. […]
The source made the active and inactive calls. The calls were made as follows: active = hit-call score of the fitted dose curve at least 0.9, where 1 is the maximum; inactive = score below 0.9.
Observable: outcome

INSERT INTO assay_data (input_smiles, recorded_result) VALUES
  ('O=C(O)CCC(F)(F)C(F)(F)C(F)(F)F', 'inactive'),
  ('NC(O)(C(F)(F)F)C(F)(F)F', 'inactive'),
  ('O=C(F)C1(F)C(F)(F)C(F)(F)C(F)(F)C(F)(F)C1(F)F', 'inactive');

* * *

read-out: Matrix Metallopeptidase 1 (MMP1), MMP1 (gene 4312); test: BSK_BE3C_MMP1: BioMAP Diversity Plus: BE3C Assay for Matrix Metallopeptidase 1 (MMP1) Biomarker Activity (AID 2283024); conditions: primary human bronchial epithelial cells; actives raise or lower the signal
Active and inactive are the calls of the source. The calls were made as follows: active = hit-call score of the fitted dose curve at least 0.9, where 1 is the maximum; inactive = score below 0.9.
Thanks in advance; please answer with one of these: Y = active, N = inactive

Name the outcome recorded for "CC(C)(C)c1cc(CCC(=O)NCCCCCCNC(=O)CCc2cc(C(C)(C)C)c(O)c(C(C)(C)C)c2)cc(C(C)(C)C)c1O" in the assay.
N

Would you mind telling me which call this test gave "Brc1nc2ccccc2s1" ?
N

Called result for "FC(F)(F)C(F)(F)C(F)(F)C(F)(F)C(F)(F)C(F)(F)C(F)(F)CCI"
N

Outcome logged for "O=C1C=CC(=O)N1c1ccc(Cc2ccc(N3C(=O)C=CC3=O)cc2)cc1" in this assay:
Y

How did this test come out for "OCCCCC(F)(F)C(F)(F)C(F)(F)C(F)(F)F" ?
N

Returns: the outcome recorded for "Nc1cc([N+](=O)[O-])cc(Cl)c1O" in this assay.
N

Write down the call the test reported for this compound. Item: "NC(=O)C(F)(F)C(F)(F)C(F)(F)C(F)F"
N

For "CCN(CC)c1ccc2c(c1)Oc1cc(N(CC)CC)ccc1C21OC(=O)c2ccccc21" , which call appears in the assay record?
N

Hi team, can someone confirm the assay call for "CO[Si](C)(CCC(F)(F)C(F)(F)C(F)(F)C(F)(F)C(F)(F)C(F)(F)F)OC" ?
N

I'd appreciate the recorded outcome for CC1=CC2C3C=CC(C3)C2C1C (centres undefined) from this test.
N

// return assay outcome for OCC(O)CC(F)(F)C(F)(F)C(F)(F)C(F)(F)C(F)(F)C(F)(F)C(F)(F)C(F)(F)F (centres undefined)
N

Hi team, can someone confirm the assay call for "Cc1ccc(O)c(-n2nc3ccccc3n2)c1" ?
N

Recorded call for "Cc1cnccn1" ?
N

State the result this test recorded for "NC(=O)C(F)(F)C(F)(F)C(F)(F)C(F)(F)C(F)(F)C(F)(F)C(F)(F)F" .
N

* * *

assay: ATG_DR4_LXR_CIS: Attagene CIS-FACTORIAL HepG2 Assay for human Liver X Receptor (LXR), DR4 submotif (AID 2282929); conditions: HepG2 Attagene DR4 cis-reporter, mRNA transcription; actives raise or lower the signal
The source made the active and inactive calls. How the source made its calls: active means hit-call score of the fitted dose curve at least 0.9, where 1 is the maximum; inactive means score below 0.9.
Respond only with the outcome that fits, drawn from TRUE = active, FALSE = inactive

Name the outcome recorded for CCC(C)CO (configuration not stated) in the assay.
FALSE

Can you look up the reported call for "Brc1nc2ccccc2s1" for me?
TRUE

Which outcome was entered for the compound "Cc1ccc2c(c1)OCC(=O)CO2" in this test?
FALSE

What did the test return for "O=C1OC(=O)c2ccc3c4c(ccc1c24)C(=O)OC3=O" ?
FALSE

Assay outcome for "NC(=O)C(F)(F)C(F)(F)C(F)(F)C(F)(F)C(F)(F)C(F)(F)C(F)(F)F" : what was it?
FALSE

Record lookup: outcome of this test for CC(O)C#CC(C)O (configuration not stated) ?
TRUE

What is the recorded call for this compound in the test? "O=S(=O)(OCC(F)(F)F)C(F)(F)C(F)(F)C(F)(F)C(F)(F)F"
TRUE

* * *

experiment: ATG_EGR_CIS: Attagene CIS-FACTORIAL HepG2 Assay for human Early Growth Response 1 (EGR1) (AID 2282938); settings: HepG2 Attagene CIS-FACTORIAL EGR reporter mRNA; actives raise or lower the signal
The source made the active and inactive calls. The calls were made as follows: active = hit-call score of the fitted dose curve at least 0.9, where 1 is the maximum; inactive = score below 0.9.
Allowed answers: true (1) (active), false (0) (inactive)

GET /call?item= "O=C(Cl)c1ccc(Cl)cc1Cl" returns the recorded outcome of this test.
false (0)

Hello, I am checking results. What call was entered for "CCCCCCCC/C=C\CCCCCCCC(=O)N(C)CC(=O)O" ?
false (0)

Hi, sorry to bother you, what did the test record for "O=C(O)C(F)(F)OC(F)(F)C(F)(F)OC(F)(F)C(F)(F)OC(F)(F)F" ?
false (0)

How did this test come out for CC(O)C#CC(C)O (stereo not drawn) ?
true (1)

// outcome(item) with item = "NC(=O)C(F)(F)C(F)(F)C(F)(F)C(F)(F)C(N)=O"
false (0)

Entry "CC(C)Nc1ccc(NC(C)C)c2c1C(=O)c1ccccc1C2=O" : call = ?
false (0)

Kindly provide the recorded test outcome for the following molecule: "CC(=O)c1ccccc1N"
false (0)

Which outcome was assigned to CCC(Cc1c(I)cc(I)c(N)c1I)C(=O)O (stereo not drawn) in this test?
false (0)

* * *

assay: ATG_BRE_CIS: Attagene CIS-FACTORIAL HepG2 Assay for human Bone Morphogenetic Protein (BMP) Response Element (BRE) (AID 2282933); conditions: HepG2 BMP response element reporter, Attagene transcription factor profiling; actives raise or lower the signal
Calls of active or inactive are those of the source. How the source made its calls: active means hit-call score of the fitted dose curve at least 0.9, where 1 is the maximum; inactive means score below 0.9.
Outcome field: choose from active, inactive

Fill in: this test's call for "C=CC(=O)OCCC(F)(F)C(F)(F)C(F)(F)C(F)(F)F" is ___
active

Just curious, what result did "CC(C)CC=C(C=O)c1ccccc1" get here?
inactive

Lab log entry: "NCC(F)(F)C(F)(F)C(F)(F)C(F)(F)C(F)(F)C(F)(F)C(F)(F)C(F)(F)F" — outcome as called in the assay?
inactive

Outcome? "Nc1c(Br)cc([N+](=O)[O-])cc1Br"
inactive

Could you please tell me the result logged for "Nc1cccnc1N" in this assay?
inactive

What was the test verdict on "OCC(F)(F)C(F)(F)C(F)(F)C(F)(F)C(F)(F)C(F)(F)CO" ?
inactive

Name the outcome recorded for "CC(C)(C)c1cc(Cc2cc(C(C)(C)C)c(O)c(C(C)(C)C)c2)cc(C(C)(C)C)c1O" in the assay.
inactive

Could you please tell me the result logged for "FC(F)(F)C(F)(F)C(F)(F)C(F)(F)C(F)(F)C(F)(F)CC[Si](Cl)(Cl)Cl" in this assay?
inactive

Tell me the assay call for "Cc1ccc(S(=O)(=O)C(I)I)cc1" please.
inactive

# outcome recorded in this test, key = "O=S(=O)(O)c1ccc(Cl)cc1"
inactive
